Tested on: Substance P Induced Relaxation of the Pig Coronary Arteries
Assay: Antagonism of substance P induced relaxation of the pig coronary arteries
Conditions: test compound concentration 3 × 10^-9 (unit not given), 30 min incubation
MEASURE_NAME: % inhibition of the response to 10^-9 M substance P (%)
// note: answer is a bare numeric in %

Could you tell me which % inhibition of the response to 10^-9 M substance P is on file for O=C(c1ccc2ncsc2c1)N1CCC(N2CCC(C3c4ccccc4Cn4c3nc3ccccc34)CC2)CC1Cc1ccccc1 (centres unmarked) ?
17.3

Consider next the molecule Cc1cc(C)cc(C(=O)N2CC[C@H](N3CCC(=C4c5ccccc5CCn5c(Cl)cnc54)CC3)C[C@@H]2Cc2ccccc2)c1 (relative stereo) in the same way.
16

Consider next the molecule O=C(c1ccc2ccccc2c1)N1CC[C@@H](N2CCC(C3c4ccccc4Cn4c3nc3ccccc34)CC2)C[C@@H]1Cc1ccccc1 (some centres unmarked) in the same way.
23.2

Consider next the molecule Cc1cnc2n1CCc1ccccc1C2=C1CCN([C@H]2CCN(C(=O)c3cc(C(F)(F)F)cc(C(F)(F)F)c3)[C@H](Cc3ccccc3)C2)CC1 (relative stereo) in the same way.
69.8

Consider next the molecule Cc1cc(C)cc(C(=O)N2CC[C@H](N3CCC(=C4c5ccc(C)cc5CCn5ccnc54)CC3)C[C@@H]2Cc2ccccc2)c1 (relative stereo) in the same way.
9.5

Consider next the molecule O=C(c1ccc(Cl)c(Cl)c1)N1CC[C@@H](N2CCC(C3c4ccccc4Cn4c3nc3ccccc34)CC2)C[C@@H]1Cc1ccccc1 (some centres unmarked) in the same way.
8.3

Consider next the molecule Cc1cc(C)cc(C(=O)N2CC[C@@H](N3CCC4(CC3)c3ccccc3CCn3ccnc34)C[C@@H]2Cc2ccccc2)c1 (relative stereo) in the same way.
7.7

Consider next the molecule Cc1cc(C)cc(C(=O)N2CCC(N3CCC(C4c5ccccc5Cn5c4nc4ccccc45)CC3)CC2Cc2ccccc2)c1 (centres unmarked) in the same way.
8

Consider next the molecule O=C(c1cnc2ccccc2n1)N1CCC(N2CCC(C3c4ccccc4Cn4c3nc3ccccc34)CC2)CC1Cc1ccccc1 (centres unmarked) in the same way.
3.1

Consider next the molecule O=C(c1cc(C(F)(F)F)cc(C(F)(F)F)c1)N1CC[C@@H](N2CCC(=C3c4sccc4CCn4ccnc43)CC2)C[C@@H]1Cc1ccccc1 (relative stereo) in the same way.
83.1

Consider next the molecule Cc1cc(C)cc(C(=O)N2CCC(N3CCC(C4c5ccccc5CCn5c4nc4ccccc45)CC3)CC2Cc2ccccc2)c1 (centres unmarked) in the same way.
27.3

Consider next the molecule Cc1cc(C)cc(C(=O)N2CC[C@@H](N3CCC(C4c5ccccc5Cn5ccnc54)CC3)C[C@@H]2Cc2ccccc2)c1 (some centres unmarked) in the same way.
13.5

Consider next the molecule Cc1cc(C)cc(C(=O)N2CC[C@H](N3CCC(C4c5ccccc5CCn5c4nc4ccccc45)CC3)C[C@H]2Cc2ccccc2)c1 (some centres unmarked) in the same way.
56.6

Consider next the molecule O=C(c1cc(Cl)cc(Cl)c1)N1CC[C@H](N2CCC(=C3c4ccccc4CCn4ccnc43)CC2)C[C@H]1Cc1ccccc1 (relative stereo) in the same way.
59.7
